Where do the numbers come from? From the Deep4Chem optical property database.

- TEST DETAILS: solvent given as SMILES
- RECORDED CONDITIONS: in ClC(Cl)Cl
Each record here notes measured emission maximum.
Hi! Could you send only the number? It should be in nm, unit omitted.

>>> measurement("c1cc2ccc3sc4ccc5cccc6c(c1)c2c3c4c56")
418
>>> measurement("Nc1ccc(-c2ccc(N)cc2)cc1")
384
>>> measurement("Cc1cc(C)c(C2=C3C=CC4=[N+]3[B-]3(Oc5ccccc54)Oc4ccccc4-c4ccc2n43)c(C)c1 (stereo not given)")
645

Q) Write down emission maximum measured for item C(#Cc1ccncc1)C(C#Cc1ccncc1)=Cc1ccc(C=C(C#Cc2ccncc2)C#Cc2ccncc2)cc1
A) 472

Q) Write down emission maximum measured for item Cc1c2c(c(C)c3ccccc13)-c1cc3nc4ccccc4nc3cc1-2
A) 454

----------
- TEST DETAILS: solvent given as SMILES
- RECORDED CONDITIONS: in O
RECORDED ENDPOINT: emission maximum (nm)
Hi! Could you send only the number? It should be in nm, unit omitted.

Below: 5 compounds and their reported emission maximum.
>>> measurement("CC1(C)C(/C=C/C=C/C=C/C=C2\\N(CCCCS(=O)(=O)[O-])c3ccc4ccccc4c3C2(C)C)=[N+](CCCCS(=O)(=O)[O-])c2ccc3ccccc3c21")
820
>>> measurement("CCCCCn1c2ccccc2c(=O)c2ccccc21")
428
>>> measurement("C=CCNc1ccc2ccc3oc4cc(=[N+](C)C)ccc-4nc3c2c1")
650
>>> measurement("CC[n+]1nc2cc3c4c(c2c2ccccc21)CCCN4CCC3")
570
>>> measurement("NS(=O)(=O)c1ccc(N2N=C(c3ccc(O)cc3)CC2c2ccc(Cl)cc2)cc1 (centres undefined)")
448

Could you now consider this next compound?
Q) Write down emission maximum measured for item Cc1c2oc3c(C)c(N)cc(C(=O)NC4OC(=O)C(C(C)C)N(C)C(=O)CN(C)C(=O)C5CCCN5C(=O)C(C(C)C)NC4=O)c3nc-2c(C(=O)NC2OC(=O)C(C(C)C)N(C)C(=O)CN(C)C(=O)C3CCCN3C(=O)C(C(C)C)NC2=O)c(N)c1=O (centres undefined)
A) 674.17

----------
- TEST DETAILS: solvent given as SMILES
- RECORDED CONDITIONS: in ClC(Cl)Cl
RECORDED ENDPOINT: emission maximum (nm)
Hi! Could you send only the number? It should be in nm, unit omitted.

>>> measurement("COc1ccc(-c2ccc(-c3ccc(OC)cc3)c3nc(-c4ccccc4)c(-c4ccccc4)nc23)cc1")
502
>>> measurement("CCN(CC)c1ccc(/C=N/Nc2ccc(C#N)cc2)c(O)c1")
410

Q) Write down emission maximum measured for item CCN(CC)c1ccc2cc(-c3ccc(-c4c5ccccc5c(-c5ccc(-c6cc7ccc(N(CC)CC)cc7oc6=O)cc5)c5ccccc45)cc3)c(=O)oc2c1
A) 472

Q) Write down emission maximum measured for item Cc1cccc2cc3c(=O)n(C)c(=O)n(C)c3nc12
A) 417

Q) Write down emission maximum measured for item CCN(CC)c1ccc(/C=C/C2=[O+][B-](F)(F)Oc3c2c(=O)oc2cc(N(CC)CC)ccc32)cc1
A) 622

Q) Write down emission maximum measured for item CCCCn1c2ccc(-c3ccccc3)cc2c2ccc3c4cc(-c5ccccc5)ccc4n(CCCC)c3c21
A) 414

Q) Write down emission maximum measured for item Cc1ccc(/C2=c3\cc/c(o3)=C(\c3ccc(C)cc3)c3ccc([nH]3)-c3ccc4n3[B-](F)(F)[N+]3=C(C=CC3=C4c3cccs3)c3ccc2[nH]3)cc1
A) 722

Q) Write down emission maximum measured for item CC(=O)c1c2c(cc3cc(N(C)C)ccc13)CCC2
A) 511

----------
- TEST DETAILS: solvent given as SMILES
- RECORDED CONDITIONS: in CC#N
Classification field: enter met for emission maximum values not below 500 nm, not met for values below it.

Worked cases, answers included:
>>> group_label("C=Cc1cc2ccc(OC(=O)c3ccccc3)cc2oc1=O")
"not met"
>>> group_label("C(=C\\c1ccc(N(c2ccccc2)c2ccccc2)cc1)/c1ccccc1")
"not met"
>>> group_label("COC(=O)c1ccc(C#Cc2ccc(N(C)C)cc2)cc1")
"met"
>>> group_label("Cc1cc(=O)oc2cc3cc(O)ccc3cc12")
"not met"

Q) Say whether Oc1ccccc1/C=N/c1ccc(Cn2cncn2)cc1 shows emission maximum of 500 nm or more.
A) not met

Q) Say whether N#C[Se]CCCCCOc1ccc2ccc(=O)oc2c1 shows emission maximum of 500 nm or more.
A) not met

Q) Say whether COc1cc(/C=C/c2ccncc2)c(OC)cc1C=O shows emission maximum of 500 nm or more.
A) not met

----------
- TEST DETAILS: solvent given as SMILES
- RECORDED CONDITIONS: in Cc1ccccc1
Note to self: emission maximum under 400 nm means criterion met, ties and anything higher get criterion not met.

Worked cases, answers included:
>>> group_label("CN(C)c1ccc(/C=C/c2nc3ccc(N(C)C)cc3oc2=O)cc1")
"criterion not met"
>>> group_label("c1ccc2c(c1)Sc1ccccc1N2c1ccc2c(ccc3nc4ccc5cc(N6c7ccccc7Sc7ccccc76)ccc5c4nc32)c1")
"criterion not met"
>>> group_label("CCC1=C(C)C2=C(c3c4ccccc4c(C)c4ccccc34)c3c(C)c(CC)c(C)n3[B-](F)(F)[N+]2=C1C")
"criterion not met"
>>> group_label("Oc1ccccc1/C=N/c1ccc(Cn2cncn2)cc1")
"criterion met"
>>> group_label("C(#Cc1cccc(C#Cc2ccc(-n3c4ccccc4c4ccccc43)cc2)c1)c1ccc(-n2c3ccccc3c3ccccc32)cc1")
"criterion met"

Q) Quick check: emission maximum of c1cc2ccc3ccc4cc3c2cc1CCCCCCc1ccc2ccc3ccc-4cc3c2c1 under 400 nm?
A) criterion met

Q) Quick check: emission maximum of CC(C)(C)c1ccc(N2c3ccc(C(C)(C)C)cc3B3c4cc(C(C)(C)C)ccc4N(c4ccc(C(C)(C)C)cc4)c4cc(-n5c6ccc(C(C)(C)C)cc6c6cc(C(C)(C)C)ccc65)cc2c43)cc1 under 400 nm?
A) criterion not met

----------
- TEST DETAILS: solvent given as SMILES
- RECORDED CONDITIONS: in Cc1ccccc1
RECORDED ENDPOINT: emission maximum (nm)
Hi! Could you send only the number? It should be in nm, unit omitted.

>>> measurement("Cc1nnc(-c2cc(-n3c4ccccc4c4ccccc43)c(-n3c4ccccc4c4ccccc43)cc2-c2nnc(C)o2)o1")
453
>>> measurement("CC1(C)c2ccccc2N(c2ccc(-c3nc4c(C#N)ccc(C#N)c4nc3-c3ccc(N4c5ccccc5C(C)(C)c5ccccc54)cc3)cc2)c2ccccc21")
663
>>> measurement("CCn1c2ccccc2c2cc(/C=C/c3cccc[n+]3CCCS(=O)(=O)[O-])ccc21")
590
>>> measurement("CC(C)(C)c1ccc2c(c1)sc1[n+]2[B-](F)(F)n2c(c3cccc4c(Br)ccc2c43)=N1")
524
>>> measurement("OCCSc1cccc2[n+]1[B-](F)(F)n1c(c3cccc4cccc1c43)=N2")
505
>>> measurement("Cc1ccc(-n2c3ccccc3c3cc(C=C(C#N)C#N)ccc32)cc1")
454
>>> measurement("c1ccc(N(c2ccccc2)c2ccc(-c3ccc4c(c3)C3(c5cc(-c6ccc(N(c7ccccc7)c7ccccc7)cc6)ccc5S4)c4ccccc4-c4ccccc43)cc2)cc1")
398.74
>>> measurement("COc1cc(C2=c3c(c4ccc(C(C)(C)C)cc4c4c(OC)c(OC)c(OC)cc34)=[N+]3C2=Nc2c(-c4cc(OC)c(OC)c(OC)c4)c4c5cc(OC)c(OC)c(OC)c5c5cc(C(C)(C)C)ccc5c4n2[B-]3(F)F)cc(OC)c1OC")
820
>>> measurement("Nc1ccc(-c2ccc3c(c2)C(=O)c2ccccc2C3=O)cc1")
599
>>> measurement("CC1=CC(C)=[N+]2C1=C(c1ccc(-c3c4ccccc4c(-c4ccccc4)c4ccccc34)cc1)c1c(C)cc(C)n1[B-]2(F)F")
515

Q) Write down emission maximum measured for item N#Cc1cc(-n2c3ccccc3c3ncccc32)c(-n2c3ccccc3c3ncccc32)cc1C#N
A) 450.7

Q) Write down emission maximum measured for item c1ccc(N(c2ccccc2)c2c3ccccc3c(N(c3ccccc3)c3ccccc3)c3ccccc23)cc1
A) 510

Q) Write down emission maximum measured for item CC(C)(C)c1ccc2c(c1)c1cc(C(C)(C)C)ccc1n2-c1cccc(C(=O)c2cccc(-n3c4ccc(C(C)(C)C)cc4c4cc(C(C)(C)C)ccc43)n2)n1
A) 381.64

Q) Write down emission maximum measured for item COc1cc(/C=C/c2cc(OC)c(-c3nc(-c4ccccc4)c(-c4ccccc4)[nH]3)cc2OC)c(OC)cc1/C=C/c1cc(OC)c(-c2nc(-c3ccccc3)c(-c3ccccc3)[nH]2)cc1OC
A) 502

Q) Write down emission maximum measured for item CC(C)(C)c1ccc(N(c2ccc(C(C)(C)C)cc2)c2ccc(S(=O)(=O)c3ccc(N(c4ccc(C(C)(C)C)cc4)c4ccc(C(C)(C)C)cc4)cc3)cc2)cc1
A) 419

Q) Write down emission maximum measured for item Cc1ccc([B-]2(c3ccc(C)cc3)n3nc(C(F)(F)F)cc3-c3c4ccccc4cc[n+]32)cc1
A) 407

Q) Write down emission maximum measured for item COc1ccc2c(c1)c1cc(OC)ccc1n2-c1ccc(S(=O)(=O)c2ccc(-n3c4ccc(OC)cc4c4cc(OC)ccc43)cc2)cc1
A) 445

Q) Write down emission maximum measured for item CC(C)c1cc(C(C)C)c(B2c3ccccc3Oc3cc(N4c5ccccc5C(C)(C)c5ccccc54)ccc32)c(C(C)C)c1
A) 475

Q) Write down emission maximum measured for item CCCCCCN(CCCCCC)c1ccc(C#Cc2ccc(/C=C/c3ccc(-c4ccc(/C=C/c5ccc(C#Cc6ccc(N(CCCCCC)CCCCCC)cc6)cc5)cc4)cc3)cc2)cc1
A) 452

Q) Write down emission maximum measured for item COc1ccc(-c2c3ccccc3c3n2[B-](F)(F)[N+]2=Cc4c5ccccc5c(-c5ccc(OC)cc5)n4[B-](F)(F)[N+]2=C3)cc1
A) 616

Q) Write down emission maximum measured for item CC(C)(C)c1ccc2c(c1)c1cc(C(C)(C)C)ccc1n2-c1cccc2c1Oc1c(-c3nc(-c4ccccc4)nc(-c4ccccc4)n3)cccc1C2(C)C
A) 451

Q) Write down emission maximum measured for item O=S(=O)(c1ccc(N(c2ccccc2)c2ccccc2)cc1)c1ccc(S(=O)(=O)c2ccc(N(c3ccccc3)c3ccccc3)cc2)cc1
A) 451

Q) Write down emission maximum measured for item CCN1c2ccc(/C=N/Nc3ccccn3)cc2Sc2cc(-c3ccc(OC)cc3)ccc21
A) 484
